system: SARS-CoV-2 K1734/δ; assay: microbe, parasite or virus in culture; type: cell-based; details: Severe acute respiratory syndrome coronavirus 2, Vero C1008, read-out: EC50 δ, individual assays
readout.label: EC50 (µM)
Note: unit µM is implicit; provide only the numeric part.

[Q] What is its EC50 for SARS-CoV-2 K1734/δ? Entry: CC(C)(C)[C@H](NC(=O)C(F)(F)F)C(=O)N1C[C@H]2[C@@H]([C@H]1C(=O)N[C@H](C#N)C[C@@H]1CCNC1=O)C2(C)C [Nirmatrelvir, reference compound]
[A] 1.51

----------
I'd appreciate it if you could supply EC50 values for the items below.
system: SARS-CoV-2 QHN001/α; experiment: microbe, parasite or virus in culture; type: cell-based; details: read-out: EC50 against QHN001/α
Mention the unit after the number when you answer.

[Q] Name the recorded EC50 for CC(C)(C)[C@H](NC(=O)C(F)(F)F)C(=O)N1C[C@H]2[C@@H]([C@H]1C(=S)N[C@@H](C[C@@H]1CCNC1=O)C(=O)c1nc3c(F)cccc3s1)C2(C)C .
[A] 300 nM

[Q] Name the recorded EC50 for CC(C)(C)[C@H](NC(=O)C(F)(F)F)C(=O)N1C[C@H]2[C@@H]([C@H]1C(=O)N[C@@H](C[C@@H]1CCNC1=O)C(=O)c1nc3c(F)cccc3s1)C2(C)C .
[A] 42 nM
